Provenance of the data: patent US20180250395A1

Examples of binders with documented KD Ratio Cyno/Human follow.
Measured On: T1, Cyno CD47 ECD protein, His-tagged, monomer (cyno)
T1 construct: extracellular domain; also called cynomolgus CD47
Protocol Notes: ProteOn SPR; cyno KD / human KD
Observation Type: KD Ratio Cyno/Human

[[record]]
binder = "C47B242 (antibody, V domains shown, human IgG2sigma/kappa) VH: EVQLVQSGAEVKKPGESLKISCKGSGYSFTDSWIGWVRQMPGKGLEWMGIIYPGDSDTRYSPSFQGQVTISADKSISTAYLQWSSLKASDTAVYYCARVGRFASHQLDYWGQGTLVTVSS VL: EIVLTQSPATLSLSPGERATLSCRASQSVSNRLAWYQQKPGQAPRLLIYGASNRATGIPARFSGSGSGTDFTLTISSLEPEDFAVYYCQQGRSWPFTFGQGTKVEIK"
test_value = 1

[[record]]
binder = "C47B228 (antibody, V domains shown, human IgG2sigma/kappa) VH: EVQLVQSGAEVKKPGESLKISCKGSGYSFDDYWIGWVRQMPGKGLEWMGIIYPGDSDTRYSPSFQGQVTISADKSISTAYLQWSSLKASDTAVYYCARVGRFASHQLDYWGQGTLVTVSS VL: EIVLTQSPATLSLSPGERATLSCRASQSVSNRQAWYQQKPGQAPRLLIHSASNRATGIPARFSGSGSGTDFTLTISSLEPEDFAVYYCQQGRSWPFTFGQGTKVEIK"
test_value = 0.9

[[record]]
binder = "C47B216 (antibody, V domains shown, human IgG2sigma/kappa) VH: EVQLVQSGAEVKKPGESLKISCKGSGYSFDDSWIGWVRQMPGKGLEWMGIIYPGDSDTRYSPSFQGQVTISADKSISTAYLQWSSLKASDTAVYYCARVGRFASHQLDYWGQGTLVTVSS VL: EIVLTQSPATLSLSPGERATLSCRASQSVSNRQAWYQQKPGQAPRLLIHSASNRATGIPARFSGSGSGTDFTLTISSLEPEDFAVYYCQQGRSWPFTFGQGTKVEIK"
test_value = 0.8

[[record]]
binder = "C47B239 (antibody, V domains shown, human IgG2sigma/kappa) VH: EVQLVQSGAEVKKPGESLKISCKGSGYSFTSYWIGWVRQMPGKGLEWMGIIYPGDSDTRYSPSFQGQVTISADKSISTAYLQWSSLKASDTAMYYCARVGRFASHQLDYWGQGTLVTVSS VL: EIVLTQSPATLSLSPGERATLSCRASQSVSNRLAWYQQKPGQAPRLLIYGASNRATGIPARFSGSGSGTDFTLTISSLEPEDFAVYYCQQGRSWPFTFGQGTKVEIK"
test_value = 1.4

[[record]]
binder = "C47B91 (antibody, human IgG2, V domains shown, phage-derived; also called C47M91; parent C47B91) VH: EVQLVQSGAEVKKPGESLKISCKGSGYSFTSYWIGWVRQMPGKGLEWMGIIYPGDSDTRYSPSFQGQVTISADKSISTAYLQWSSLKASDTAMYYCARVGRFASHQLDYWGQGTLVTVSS VL: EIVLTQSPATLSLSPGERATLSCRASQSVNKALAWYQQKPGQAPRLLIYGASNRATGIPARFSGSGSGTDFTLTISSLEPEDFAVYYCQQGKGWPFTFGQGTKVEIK"
test_value = 3

